compounds and their reported AC50
Tested on: MYB mRNA
Test: Splicing RT-qPCR assay, MYB canonical (CJ) and alternative (AJ) junction mRNA
Type: cell-based, human
Conditions: Homo sapiens, 24 h, A673 or K562 cells, 24 hours compound treatment, RT-qPCR; read-out: MYB AJ (AC50, increase in alternative junction mRNA)
Experimental: Compounds described herein were used to modulate RNA transcript abundance in cells. The expression of a target mRNA was measured by detecting the formation of an exon-exon junction in the canonical transcript (CJ). A compound mediated exon-inclusion event was detected by observing an increase in formation of a new junction with an alternative exon (AJ). Real-time qPCR assays were used to detect these splicing switches and interrogate the potency of various compounds towards different target genes. […]

Here's what some known entries look like.
compoundSmiles	AC50
Cc1cn2cc(NC(=O)c3ccc(N4C[C@H]5CC[C@@H](C4)N5)c4cn(C)nc34)cc(F)c2n1	< 100 nM
CNc1nc(NC(=O)c2ccc(N3CC[C@@H](NC)C3)c3cn(C)nc23)cn2cc(C)nc12	1000 to 10000 nM
CCC(=O)CN[C@@H]1CCN(c2ccc(C(=O)Nc3cc(F)c4nc(C)cn4c3)c3nn(C)cc23)C1	< 100 nM
Cc1cn2cc(NC(=O)c3ccc(N4CCNCC4)c4oc(C)nc34)cc(F)c2n1	< 100 nM
Cc1cc2c(N3CCNCC3)ccc(C(=O)Nc3cn[nH]c3)c2o1	> 10000 nM
CN[C@@H]1CCN(c2ccc(C(=O)Nc3cn4cc(C)nc4c(OC)n3)c3nn(C)cc23)C1	< 100 nM
CCn1cc2c(N3CCN[C@H](C4CC4)C3)ccc(C(=O)Nc3cc(F)c4nc(C)cn4c3)c2n1	100 to 1000 nM

Turning to the following compound.
What AC50 appears in the records for this compound with MYB mRNA? CN[C@@H]1CCN(c2ccc(C(=O)Nc3cn4cc(C)nc4c(OC)n3)c3nn(CCOC)cc23)C1
100 to 1000 nM
